# System: Echinochloa crus-galli (ECHCG)
# test-description: Pre-emergence biological efficacy (percentage damage)
# Assay type: in vivo
# measurement-conditions: Echinochloa crus-galli, 312 h, dose 1,000 g/ha, evaluated after 13 days, 100=total damage, 0=no damage
This section presents compounds with their documented pest or weed control at 1000 g/ha values.

compound-structure: C=Cc1c(N)nc(-c2ccc(Cl)c(Cl)c2)nc1C(=O)OC
pest or weed control at 1000 g/ha (%): 30
//
compound-structure: C=Cc1c(N)nc(-c2ccc(SC)cc2)nc1C(=O)OC
pest or weed control at 1000 g/ha (%): 0
//
compound-structure: COC(=O)c1nc(C2CC2)nc(N)c1/C=C/C1CC1
pest or weed control at 1000 g/ha (%): 0
//
compound-structure: C=Cc1c(N)nc(-c2ccc(F)c(C)c2)nc1C(=O)OC
pest or weed control at 1000 g/ha (%): 40
//
compound-structure: COC(=O)c1nc(-c2ccc(Cl)c(OC)c2F)nc(N)c1C
pest or weed control at 1000 g/ha (%): 20
//
compound-structure: C=Cc1c(N)nc(-c2ccc(Cl)c(N(C)C)c2F)nc1C(=O)OCCCC
pest or weed control at 1000 g/ha (%): 100
//
compound-structure: C=Cc1c(N)nc(-c2ccc(F)cc2)nc1C(=O)OC
pest or weed control at 1000 g/ha (%): 10
//
compound-structure: C=Cc1c(N)nc(-c2ccc3ccccc3c2)nc1C(=O)OC
pest or weed control at 1000 g/ha (%): 0
//
compound-structure: C=Cc1c(N)nc(-c2ccc(F)c(Cl)c2)nc1C(=O)OC
pest or weed control at 1000 g/ha (%): 40
//
compound-structure: COC(=O)c1nc(-c2ccc(Cl)c(OC)c2F)nc(N)c1C1CC1
pest or weed control at 1000 g/ha (%): 0
//
compound-structure: C=Cc1c(N)nc(SC)nc1OCC(=O)OC
pest or weed control at 1000 g/ha (%): 0
//
compound-structure: C=Cc1c(N=[N+]=[N-])nc(C2CC2)nc1C(=O)OC
pest or weed control at 1000 g/ha (%): 0
//
compound-structure: C=Cc1c(N)nc(-c2ccc(Cl)c(N(C)C)c2F)nc1C(=O)OCCOCCCC
pest or weed control at 1000 g/ha (%): 100
//
compound-structure: COC(=O)c1nc(-c2ccc(Cl)c(OC)c2F)nc(N)c1C(C)=O
pest or weed control at 1000 g/ha (%): 20
//
compound-structure: C=C(OCC)c1c(N)nc(-c2ccc(Cl)c(N(C)C)c2F)nc1C(=O)OC
pest or weed control at 1000 g/ha (%): 0
//
compound-structure: C=Cc1c(OC)nc(-c2ccc(Cl)c(OC)c2F)nc1C(=O)OC
pest or weed control at 1000 g/ha (%): 0
//
compound-structure: C=Cc1c(N)nc(C2CC2)nc1C(=O)OC
pest or weed control at 1000 g/ha (%): 80
//
compound-structure: C=C(OCC)c1c(N)nc(-c2ccc(C(F)(F)F)cc2)nc1C(=O)OC
pest or weed control at 1000 g/ha (%): 0
//
compound-structure: C=Cc1c(N)nc(-c2ccc(Cl)c(N(C)C)c2F)nc1C(=O)OCc1ccccc1
pest or weed control at 1000 g/ha (%): 90

----------
# Test system: Setaria faberi (SETFA)
# test-description: Post-emergence biological efficacy (percentage damage)
# Type: in vivo
# measurement-conditions: Setaria faberi, 312 h, dose 1,000 g/ha, evaluated after 13 days, 100=total damage, 0=no damage
readout-kind: pest or weed control at 1000 g/ha (%)

compound: C=Cc1c(N)nc(-c2ccc3c(c2)OCO3)nc1C(=O)OC [Compound 70-61]
tested-on: Setaria faberi (SETFA)
readout-kind: pest or weed control at 1000 g/ha
units-text: %
reported: 40
//
compound: C=Cc1c(N)nc(-c2ccc(Cl)c(N(C)C)c2F)nc1C(=O)OCC [Compound 33-101]
tested-on: Setaria faberi (SETFA)
readout-kind: pest or weed control at 1000 g/ha
units-text: %
reported: 80
//
compound: C=Cc1c(N)nc(-c2ccc(Cl)c(OC)c2F)nc1C(=O)OC [Compound 27-61]
tested-on: Setaria faberi (SETFA)
readout-kind: pest or weed control at 1000 g/ha
units-text: %
reported: 100
//
compound: C=Cc1c(SC)nc(C2CC2)nc1C(=O)OC [Compound 2-400]
tested-on: Setaria faberi (SETFA)
readout-kind: pest or weed control at 1000 g/ha
units-text: %
reported: 0
//
compound: C=Cc1c(OC)nc(-c2ccc(Cl)c(OC)c2F)nc1C(=O)OC [Compound 27-398]
tested-on: Setaria faberi (SETFA)
readout-kind: pest or weed control at 1000 g/ha
units-text: %
reported: 0

----------
# Test system: Setaria faberi (SETFA)
# test-description: Post-emergence biological efficacy (percentage damage)
# Format: in vivo
# measurement-conditions: Setaria faberi, 312 h, dose 1,000 g/ha, evaluated after 13 days, 100=total damage, 0=no damage
This section presents compounds with their documented pest or weed control at 1000 g/ha values.
readout-kind: pest or weed control at 1000 g/ha (%)

compound: C=Cc1c(N)nc(SC)nc1OCC(=O)OC
units-text: %
reported: 0

compound: COC(=O)c1nc(-c2ccc(Cl)c(N(C)C)c2F)nc(N)c1C
units-text: %
reported: 70

compound: COC(=O)c1nc(C2CC2)nc(N)c1C
units-text: %
reported: 80

compound: CC(O)c1c(N)nc(-c2ccc(C(F)(F)F)cc2)nc1CO (centres unmarked)
units-text: %
reported: 30

compound: C=C(C)c1c(N)nc(C2CC2)nc1C(=O)OC
units-text: %
reported: 30

----------
# Test system: Solanum nigrum (SOLNI)
# test-description: Post-emergence biological efficacy (percentage damage)
# Assay type: in vivo
# measurement-conditions: Solanum nigrum, 312 h, dose 1,000 g/ha, evaluated after 13 days, 100=total damage, 0=no damage

compound: COC(=O)c1nc(C2CC2)nc(N)c1C=C(C)C [Compound 2-69]
pest or weed control at 1000 g/ha / %: 80

compound: C=C(C)c1c(N)nc(C2CC2)nc1C(=O)OC [Compound 2-64]
pest or weed control at 1000 g/ha / %: 80

compound: C=Cc1c(N)nc(-c2ccc(Cl)c(N(C)C)c2F)nc1C(=O)OCCC [Compound 33-316]
pest or weed control at 1000 g/ha / %: 90

compound: CCc1c(N)nc(-c2ccc(C(F)(F)F)cc2)nc1C(=O)OC [Compound 31-42]
pest or weed control at 1000 g/ha / %: 10

compound: C/C=C/c1c(N)nc(-c2ccc(C(F)(F)F)cc2)nc1C(=O)OC [Compound 31-62]
pest or weed control at 1000 g/ha / %: 50

compound: C=Cc1c(N)nc(-c2ccc(Cl)c(Cl)c2)nc1C(=O)OC [Compound 9-61]
pest or weed control at 1000 g/ha / %: 90

compound: COC(=O)c1nc(-c2ccc(Cl)cc2)nc(N)c1C [Compound 5-41]
pest or weed control at 1000 g/ha / %: 70

compound: C=Cc1c(N)nc(C2CC2)nc1C(=O)OC [Compound 2-61]
pest or weed control at 1000 g/ha / %: 100

compound: C=Cc1c(N)nc(-c2ccc(Cl)c(N(C)C)c2F)nc1C(=O)OC(C)c1ccccc1 (stereo not drawn) [Compound 33-394]
pest or weed control at 1000 g/ha / %: 80

----------
# System: Solanum nigrum (SOLNI)
# test-description: Post-emergence biological efficacy (percentage damage)
# Assay type: in vivo
# measurement-conditions: Solanum nigrum, 312 h, dose 1,000 g/ha, evaluated after 13 days, 100=total damage, 0=no damage
This section presents molecules with their documented pest or weed control at 1000 g/ha values.

molecule: C=Cc1c(N)nc(-c2ccc(Br)cc2)nc1C(=O)OC
tested-on: Solanum nigrum (SOLNI)
pest or weed control at 1000 g/ha [%]: 90
//
molecule: C=Cc1c(N)nc(-c2ccc(Cl)c(N(C)C)c2F)nc1C(=O)OCC(C)C
tested-on: Solanum nigrum (SOLNI)
pest or weed control at 1000 g/ha [%]: 90
//
molecule: C=CCOC(=O)c1nc(-c2ccc(Cl)c(N(C)C)c2F)nc(N)c1C=C
tested-on: Solanum nigrum (SOLNI)
pest or weed control at 1000 g/ha [%]: 100
//
molecule: C=Cc1c(N)nc(-c2ccc(Cl)cc2F)nc1C(=O)OC
tested-on: Solanum nigrum (SOLNI)
pest or weed control at 1000 g/ha [%]: 100
//
molecule: C=Cc1c(N)nc(-c2ccc(Cl)c(N(C)C)c2F)nc1C(=O)OCCOCCCC
tested-on: Solanum nigrum (SOLNI)
pest or weed control at 1000 g/ha [%]: 90
//
molecule: C=Cc1c(N)nc(-c2ccc(F)c(OC)c2)nc1C(=O)OC
tested-on: Solanum nigrum (SOLNI)
pest or weed control at 1000 g/ha [%]: 30
//
molecule: C=C(OCC)c1c(N)nc(-c2ccc(Cl)c(OC)c2F)nc1C(=O)OC
tested-on: Solanum nigrum (SOLNI)
pest or weed control at 1000 g/ha [%]: 80
//
molecule: COC(=O)c1nc(-c2ccc(Cl)c(N(C)C)c2F)nc(N)c1C1CC1
tested-on: Solanum nigrum (SOLNI)
pest or weed control at 1000 g/ha [%]: 10
//
molecule: C=C(OCC)c1c(N)nc(-c2ccc(Cl)c(N(C)C)c2F)nc1C(=O)OC
tested-on: Solanum nigrum (SOLNI)
pest or weed control at 1000 g/ha [%]: 40
//
molecule: COC(=O)COc1nc(C2CC2)nc(N)c1C
tested-on: Solanum nigrum (SOLNI)
pest or weed control at 1000 g/ha [%]: 80
//
molecule: C=Cc1c(N)nc(-c2ccc(C)cc2)nc1C(=O)OC
tested-on: Solanum nigrum (SOLNI)
pest or weed control at 1000 g/ha [%]: 80
//
molecule: COC(=O)c1nc(-c2ccc(Cl)c(OC)c2F)nc(N)c1C1CC1
tested-on: Solanum nigrum (SOLNI)
pest or weed control at 1000 g/ha [%]: 80
//
molecule: C=Cc1c(N)nc(-c2ccc(Cl)c(N(C)C)c2F)nc1C(=O)OCC(CC)CCCC (stereo not drawn)
tested-on: Solanum nigrum (SOLNI)
pest or weed control at 1000 g/ha [%]: 70
//
molecule: CC(O)c1c(N)nc(-c2ccc(C(F)(F)F)cc2)nc1CO (stereo not drawn)
tested-on: Solanum nigrum (SOLNI)
pest or weed control at 1000 g/ha [%]: 30
//
molecule: C=Cc1c(N)nc(-c2ccc(Cl)c(N(C)C)c2F)nc1C(=O)OC(C)C
tested-on: Solanum nigrum (SOLNI)
pest or weed control at 1000 g/ha [%]: 100
//
molecule: C=Cc1c(C(=O)OC)nc(C2CC2)nc1N(C)C
tested-on: Solanum nigrum (SOLNI)
pest or weed control at 1000 g/ha [%]: 50
//
molecule: C=Cc1c(N)nc(-c2ccc(Cl)c(C(F)(F)F)c2)nc1C(=O)OC
tested-on: Solanum nigrum (SOLNI)
pest or weed control at 1000 g/ha [%]: 80
//
molecule: C=C(C)c1c(N)nc(-c2ccc(C(F)(F)F)cc2)nc1C(=O)OC
tested-on: Solanum nigrum (SOLNI)
pest or weed control at 1000 g/ha [%]: 60
//
molecule: C=Cc1c(OC)nc(-c2ccc(Cl)c(OC)c2F)nc1C(=O)OC
tested-on: Solanum nigrum (SOLNI)
pest or weed control at 1000 g/ha [%]: 20
//
molecule: COC(=O)c1nc(-c2ccc(C(F)(F)F)cc2)nc(N)c1C(C)=O
tested-on: Solanum nigrum (SOLNI)
pest or weed control at 1000 g/ha [%]: 100
//
molecule: C=Cc1c(N)nc(-c2ccc(Cl)c(OC)c2F)nc1C(=O)OC
tested-on: Solanum nigrum (SOLNI)
pest or weed control at 1000 g/ha [%]: 80
//
molecule: COC(=O)c1nc(C2CC2)nc(N(C)C)c1C
tested-on: Solanum nigrum (SOLNI)
pest or weed control at 1000 g/ha [%]: 80
//
molecule: C=Cc1c(N)nc(SC)nc1C(=O)OC
tested-on: Solanum nigrum (SOLNI)
pest or weed control at 1000 g/ha [%]: 90
//
molecule: C=Cc1c(N)nc(-c2ccc(Cl)c(OC)c2F)nc1C(=O)O
tested-on: Solanum nigrum (SOLNI)
pest or weed control at 1000 g/ha [%]: 90
//
molecule: COC(=O)c1nc(-c2ccc(C)c(OC)c2F)nc(N)c1C
tested-on: Solanum nigrum (SOLNI)
pest or weed control at 1000 g/ha [%]: 100
//
molecule: C=Cc1ccc(-c2nc(N)c(C=C)c(C(=O)OC)n2)c(F)c1N(C)C
tested-on: Solanum nigrum (SOLNI)
pest or weed control at 1000 g/ha [%]: 60
//
molecule: COC(=O)c1nc(-c2ccc(Cl)c(OC)c2F)nc(N)c1C
tested-on: Solanum nigrum (SOLNI)
pest or weed control at 1000 g/ha [%]: 80
//
molecule: C=Cc1c(N)nc(-c2ccc3ccccc3c2)nc1C(=O)OC
tested-on: Solanum nigrum (SOLNI)
pest or weed control at 1000 g/ha [%]: 30
//
molecule: C=Cc1c(SC)nc(C2CC2)nc1C(=O)OC
tested-on: Solanum nigrum (SOLNI)
pest or weed control at 1000 g/ha [%]: 100
//
molecule: C=Cc1c(N)nc(-c2ccc(F)c(C(F)(F)F)c2)nc1C(=O)OC
tested-on: Solanum nigrum (SOLNI)
pest or weed control at 1000 g/ha [%]: 70
//
molecule: COC(=O)c1nc(-c2ccc(Cl)c(N(C)C)c2F)nc(N)c1C
tested-on: Solanum nigrum (SOLNI)
pest or weed control at 1000 g/ha [%]: 70
//
molecule: COC(=O)c1nc(-c2ccc(Cl)c(OC)c2F)nc(N)c1C=C(C)C
tested-on: Solanum nigrum (SOLNI)
pest or weed control at 1000 g/ha [%]: 80
//
molecule: C=Cc1c(N)nc(-c2ccc(Cl)cc2)nc1C(=O)OC
tested-on: Solanum nigrum (SOLNI)
pest or weed control at 1000 g/ha [%]: 100
//
molecule: C=Cc1c(N)nc(-c2ccc(Cl)c(N(C)C)c2F)nc1C(=O)OCc1ccccc1
tested-on: Solanum nigrum (SOLNI)
pest or weed control at 1000 g/ha [%]: 90
//
molecule: C=Cc1c(N)nc(-c2ccc(F)c(Cl)c2)nc1C(=O)OC
tested-on: Solanum nigrum (SOLNI)
pest or weed control at 1000 g/ha [%]: 90
//
molecule: C=Cc1c(N)nc(-c2ccc(Cl)c(N(C)C)c2F)nc1C(=O)OCC
tested-on: Solanum nigrum (SOLNI)
pest or weed control at 1000 g/ha [%]: 90
